Taken from ChEMBL document CHEMBL3988442.

Tested on: Trypanosoma cruzi
Experiment: Trypanosoma cruzi phosphomannomutase and mannose-1-phosphate guanylyltransferase assay
Assay type: functional
Set-up: scale not given: direction of the effect not stated beside the values
Details: 10 µM
Overview of recorded Percent Effect for various molecules
Give the quantity in %, number only.

molecule	test-system	Percent Effect [%]
Cc1noc(C)c1CN1C(=O)[C@H]2CC[C@@H]1CN(Cc1cccnc1N)C2	Trypanosoma cruzi	-8.46
CCN1CCN(c2ncc(-c3cc(C)no3)c(-c3ccoc3C)n2)CC1	Trypanosoma cruzi	1.98
Cc1ccc(CN2CC[C@H]3OCC[C@@H](C(=O)NC4CC4)[C@@H]3C2)o1	Trypanosoma cruzi	-4.01
COc1ccc2c(c1)CCN(CCC(=O)NC1CCCCC1)CC2	Trypanosoma cruzi	5.41

[Q] Item: CCC1CCCN(C(=O)Cc2csc(-c3ncccn3)n2)C1 (configuration not stated) Test system: Trypanosoma cruzi Read-out: Percent Effect Value: ?
[A] 5.26

[Q] Lab note: need Percent Effect with Trypanosoma cruzi for entry "Cc1cc(CN(C)Cc2cc3c(cc2OC(F)F)OCO3)on1" , please look it up.
[A] -0.684

[Q] Give the reported Percent Effect for "Cc1ccc(CN2C[C@@H]3COC[C@H](C(=O)N4CCCCO4)[C@@H]3C2)o1" (system: Trypanosoma cruzi).
[A] 1.57

---

The following molecules are listed with their measured Percent Effect values.
Biological target: Tyrosyl-tRNA synthetase, putative (Trypanosoma cruzi (strain CL Brener))
Test: Trypanosoma cruzi tyrosyl tRNA synthetase (TcYRS) SOP
Assay type: functional
Set-up: scale not given: direction of the effect not stated beside the values
Conditions: 30 µM
Kindly answer with a numeric value in %, unit omitted.

Guide cases for Percent Effect, answers given:
molecule	reported-endpoint	result-units	quantitative-readout
Cc1nc(C)n(CC2CN(c3ncnc4[nH]ccc34)CCO2)n1 (stereo unspecified)	Percent Effect	%	12.7
Cc1ccc(S(=O)(=O)NC(=O)c2c(C)noc2C(C)C)cc1C	Percent Effect	%	10.4
CC1CCN(S(=O)(=O)NCc2ccccc2Cn2cncn2)CC1	Percent Effect	%	20.2
CC(C)c1nn(C)c(Cl)c1CNC1CCOc2ccccc21 (stereo unspecified)	Percent Effect	%	23.2
CCn1cc2c(n1)CN(Cc1nccs1)CC2COCC1CC1 (stereo unspecified)	Percent Effect	%	11.5

Could you now consider this next molecule?
[Q] // fetch Tyrosyl-tRNA synthetase, putative (Trypanosoma cruzi (strain CL Brener)) Percent Effect for CN(C)C(=O)COC1COC2(CCN(S(C)(=O)=O)CC2)C1 (stereo unspecified)
[A] 12.8

---

Molecular target: Tyrosyl-tRNA synthetase, putative (Trypanosoma cruzi (strain CL Brener))
Sequence (whole entry): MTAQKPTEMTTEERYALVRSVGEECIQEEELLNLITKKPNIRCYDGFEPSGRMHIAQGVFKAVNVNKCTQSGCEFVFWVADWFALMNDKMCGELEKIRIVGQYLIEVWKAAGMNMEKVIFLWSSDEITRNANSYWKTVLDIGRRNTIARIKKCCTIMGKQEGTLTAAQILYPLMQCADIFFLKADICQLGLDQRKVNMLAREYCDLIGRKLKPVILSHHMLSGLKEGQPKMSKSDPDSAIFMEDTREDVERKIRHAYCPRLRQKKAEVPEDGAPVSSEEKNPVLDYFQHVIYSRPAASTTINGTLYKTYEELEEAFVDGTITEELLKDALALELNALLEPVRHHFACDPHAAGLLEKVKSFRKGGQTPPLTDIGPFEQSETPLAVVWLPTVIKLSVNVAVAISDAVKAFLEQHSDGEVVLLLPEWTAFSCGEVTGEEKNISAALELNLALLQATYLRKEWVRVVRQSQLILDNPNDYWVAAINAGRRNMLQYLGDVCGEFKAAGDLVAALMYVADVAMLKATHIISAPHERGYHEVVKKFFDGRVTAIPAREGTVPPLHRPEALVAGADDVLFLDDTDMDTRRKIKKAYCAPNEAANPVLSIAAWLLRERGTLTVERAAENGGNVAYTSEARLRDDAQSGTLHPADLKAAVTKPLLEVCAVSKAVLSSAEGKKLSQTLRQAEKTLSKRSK
Experiment: Trypanosoma cruzi tyrosyl tRNA synthetase (TcYRS) _High Tyrosine SOP; further: in the data most compounds retested in dose-response had high values
Assay type: functional
Set-up: scale not given: direction of the effect not stated beside the values
Settings: 30 µM
reported-endpoint: Percent Effect

Examples with answers:
molecule	test-system	Percent Effect
CN(C)CC1(O)CCN(S(=O)(=O)c2ccc(F)cc2)C1 (stereo not given)	Tyrosyl-tRNA synthetase, putative (Trypanosoma cruzi (strain CL Brener))	5.38%
CC(NC(=O)NCCCNS(C)(=O)=O)c1ccncc1 (stereo not given)	Tyrosyl-tRNA synthetase, putative (Trypanosoma cruzi (strain CL Brener))	12.5%

[Q] Recorded Percent Effect for "N#Cc1cccc(SCCS(N)(=O)=O)c1" , please?
[A] 0%

[Q] Any idea what Percent Effect was measured for "CCOc1ccc(NC(=O)NCc2csc(NC)n2)cc1C" ?
[A] 12.9%

[Q] What Percent Effect value was documented for this molecule, "COc1ccc(C(=O)NCCc2nnc3ccccn23)c(OC)c1" ?
[A] 0%

[Q] What measured Percent Effect goes with "COc1ccccc1CC(=O)N1CCC(NCc2cc[nH]c2)CC1" ?
[A] 11.9%

[Q] If you can, please state the reported Percent Effect value of "Cc1cc(CN2CCN(C(=O)NCc3nc(C)cs3)CC2)on1" .
[A] 5.42%

[Q] Give the measured Percent Effect of "Cc1noc(NC(=O)c2ccc(OC(F)(F)F)cc2)n1" .
[A] 15.3%

---

Biological target: Ubiquitin-activating enzyme e1, putative (Leishmania donovani (strain BPK282A1)) (UniProt E9BSI1)
Sequence (E9BSI1 as listed by the source): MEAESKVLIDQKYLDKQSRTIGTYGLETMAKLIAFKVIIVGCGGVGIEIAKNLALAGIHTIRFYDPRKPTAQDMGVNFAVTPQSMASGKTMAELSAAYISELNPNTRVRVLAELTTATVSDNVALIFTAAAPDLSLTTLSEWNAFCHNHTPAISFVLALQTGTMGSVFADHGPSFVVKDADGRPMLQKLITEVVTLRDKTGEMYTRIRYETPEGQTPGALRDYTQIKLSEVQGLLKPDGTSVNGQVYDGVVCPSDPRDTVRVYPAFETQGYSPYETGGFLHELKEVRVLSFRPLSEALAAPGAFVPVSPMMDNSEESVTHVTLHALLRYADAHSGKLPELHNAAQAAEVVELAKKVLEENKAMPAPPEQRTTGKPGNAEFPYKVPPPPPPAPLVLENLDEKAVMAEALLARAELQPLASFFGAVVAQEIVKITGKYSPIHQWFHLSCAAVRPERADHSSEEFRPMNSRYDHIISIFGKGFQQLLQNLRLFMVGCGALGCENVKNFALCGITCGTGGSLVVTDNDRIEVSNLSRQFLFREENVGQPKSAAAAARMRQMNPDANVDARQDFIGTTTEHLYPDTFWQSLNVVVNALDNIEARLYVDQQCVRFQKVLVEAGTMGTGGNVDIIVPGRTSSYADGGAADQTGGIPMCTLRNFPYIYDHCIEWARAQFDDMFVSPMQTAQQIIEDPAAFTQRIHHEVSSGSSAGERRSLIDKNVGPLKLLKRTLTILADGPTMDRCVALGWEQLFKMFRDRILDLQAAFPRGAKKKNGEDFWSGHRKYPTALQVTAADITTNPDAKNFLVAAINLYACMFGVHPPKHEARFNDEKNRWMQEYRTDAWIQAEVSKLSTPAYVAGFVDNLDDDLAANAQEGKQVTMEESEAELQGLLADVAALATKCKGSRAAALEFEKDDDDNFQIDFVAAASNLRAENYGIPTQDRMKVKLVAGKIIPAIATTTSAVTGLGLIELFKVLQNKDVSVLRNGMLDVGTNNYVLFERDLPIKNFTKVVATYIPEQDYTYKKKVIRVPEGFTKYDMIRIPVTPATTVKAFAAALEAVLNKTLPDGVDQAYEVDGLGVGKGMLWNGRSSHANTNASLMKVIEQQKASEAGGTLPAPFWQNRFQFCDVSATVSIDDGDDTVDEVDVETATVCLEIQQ
Assay: Leishmania donovani Ubiquitin Activating Enzyme (LdE1)
Type: functional
Set-up: scale not given: direction of the effect not stated beside the values
Conditions: 30 µM
Potency and affinity values are given separately.
reported-endpoint: Percent Effect (%)
The response must be a number in % with no trailing unit.

compound	Percent Effect / %
Cn1cnc(S(=O)(=O)N2CCN(Cc3ccco3)CC2)c1Cl	4.17

[Q] Given the compound O=C(CCCOc1ccc(F)cc1F)N1CCCC1Cn1cccn1 (configuration not stated) , what is its reported Percent Effect?
[A] 15.8

[Q] Request the reported Percent Effect associated with "O=C(Cn1c(=O)n(Cc2ccco2)c2ncccc21)NC1CCCCC1"
[A] 14.9

---

Overview of recorded Percent Effect for various molecules
Biological target: Chromo domain-containing protein 1 (Saccharomyces cerevisiae (strain ATCC 204508 / S288c) (Baker's yeast))
Assay: ScCHD-1 Enzyme Inhibition Assay; further: in the data most compounds retested in dose-response had high values
Format: functional
Design: scale not given: direction of the effect not stated beside the values
Conditions: 30 µM
Report the figure in % without appending any unit label.

Some molecules with recorded Percent Effect:
molecule	Percent Effect / %
N#CC1CCCN(c2nc(-c3ccccc3)nc3c2CCNCC3)C1 (stereo not drawn)	9.39
O=C(c1cccnc1)N1CCCC2(CCN(c3ccsc3)C2=O)C1 (stereo not drawn)	-9.17
COc1cc(CNC(=O)Nc2cc(C(F)(F)F)c[nH]c2=O)ccn1	-11.3
Cc1ccc(CNC(=O)NCc2csc(C)n2)cn1	-6.06
COc1ccc(CN2CC[C@H](NC(C)=O)[C@@H](O)CC2)c(OC)c1	-12.5
COc1ccc(C2CCCN2S(=O)(=O)N(C)CC(C)C)cc1 (stereo not drawn)	-2.11

[Q] Tell me the measured Percent Effect of "Cc1cccc(-c2ccc(C(=O)NCC(C)(C)C(N)=O)c(=O)[nH]2)c1" , please.
[A] -14.8

[Q] Field request: Percent Effect | item: "CN(C)S(=O)(=O)N1CCC(Oc2ccccn2)CC1"
[A] -7.73

[Q] Fill blank: measured Percent Effect of the molecule Cc1ccc(CC(=O)N2CCCC(c3nc(C)cs3)C2)cn1 (stereo not drawn) is ____.
[A] 7.44

[Q] Which Percent Effect value is on record for CCc1cnc(CN(C)C2CCN(CCc3ccccn3)C2)o1 (stereo not drawn) ?
[A] 107

[Q] Consider the molecule "O=C(C1CCOCC1)N1CCO[C@H]2[C@@H](OCc3ccncc3)CC[C@@H]21" and give its measured Percent Effect.
[A] -6.34

[Q] For the molecule shown here, "O=C(NC1(c2nnn(Cc3ccncc3)n2)CCCC1)c1ccccc1" , give the reported Percent Effect.
[A] -2.08

[Q] // lookup Percent Effect for O=C(O)c1cc2c(nc1O)CC(c1cccc(Cl)c1)CC2=O (stereo not drawn)
[A] -9.15

---

Biological target: Arginase-2, mitochondrial (Homo sapiens)
Experiment: in vitro enzyme assay to detect the production of urea directly proportional to the activity of Arginase II; further: in the data most compounds retested in dose-response had high values
Format: functional
Parameters: scale not given: direction of the effect not stated beside the values
Conditions: 33.3 µM
Catalogue of compounds with associated Percent Effect
Your answer should be a plain number; it is taken to be in %.

compound	Percent Effect, %
CN(Cc1ccsc1)C(=O)CN1CCCC1Cn1cccn1 (stereo not given)	-1.05
O=C(c1cnco1)N1C[C@@H]2CC[C@H](Oc3cccc(F)c3)[C@@H]2C1	-4.41
COc1ccc(CN2CC[C@H](NC(C)=O)[C@@H](O)CC2)c(OC)c1	-2.55

[Q] Which value of Percent Effect has been reported for "CC1CCN(Cn2nc(-c3ccc(F)cc3)oc2=O)CC1" in the records?
[A] 2.13

[Q] Can you look up the measured Percent Effect of "CN1[C@H](Cn2cncn2)C[C@@H]2CN(Cc3cccc(C#N)c3)CC[C@@H]21" for me?
[A] -2.5

[Q] Entry under review: "CCS(=O)(=O)N1CCC[C@]2(C(=O)N(C)C)CN(c3ccccn3)C[C@@H]2C1" . Reported Percent Effect?
[A] -50

[Q] Any idea what its Percent Effect is? The compound is "CCO[C@@H]1CO[C@@]2(CCCN(C(=O)COc3ccccc3OC)C2)C1"
[A] 8.39

[Q] Quick one: Percent Effect for "O=C(c1ncccn1)N1C[C@H]2CCC[C@@]2(COCC2CCOCC2)C1" ?
[A] -0.319

[Q] Name the recorded Percent Effect for "Cc1ccc(Nc2nccc(C3CN(CC(N)=O)C3)n2)nc1" .
[A] -5.8

[Q] Any idea what Percent Effect was measured for "Cc1ncccc1NC(=O)[C@H]1C[C@@H]2CCN(Cc3nccs3)C[C@@H]2O1" ?
[A] 2.23

[Q] Suppose we examine the compound Cc1cnn(C2CCCN(C(=O)c3ccnc(N(C)C)c3)C2)c1 (stereo not given) ; what Percent Effect value has been reported?
[A] 0.645

[Q] May I ask what Percent Effect has been recorded for "CS(=O)(=O)NCCCNC(=O)c1cccnc1O" ?
[A] 1.25

[Q] Need Percent Effect of Cc1ccc(CC(=O)N2CCOC(c3nc(C(C)(C)C)n[nH]3)C2)cn1 (stereo not given) , thanks.
[A] -0.442

[Q] Any idea what Percent Effect was measured for "c1cc(CN2CCN(Cc3cscn3)CC2)cs1" ?
[A] 4
